Reported Ki is given for each of the following compounds.
Target: UniProt:Q16539
Sequence (Q16539 whole entry): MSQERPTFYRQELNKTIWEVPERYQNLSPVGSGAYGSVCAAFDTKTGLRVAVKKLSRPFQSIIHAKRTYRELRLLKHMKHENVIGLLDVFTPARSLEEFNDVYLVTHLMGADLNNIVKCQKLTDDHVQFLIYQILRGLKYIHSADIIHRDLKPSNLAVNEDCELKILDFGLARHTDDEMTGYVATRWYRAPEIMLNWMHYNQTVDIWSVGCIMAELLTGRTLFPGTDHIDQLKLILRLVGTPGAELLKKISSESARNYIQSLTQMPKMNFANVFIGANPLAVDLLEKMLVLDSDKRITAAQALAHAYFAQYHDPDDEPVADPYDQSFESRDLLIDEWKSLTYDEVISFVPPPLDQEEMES
Assay: Fluorescence polarization
Type: binding
Settings: p38 Kiapp, Table 2, different electron withdrawing groups at C2 or cyclopentenone scaffold
Dear colleague, please return just the value in µM, with no unit written.

chem_smiles=COC(=O)C1=CC(C)(C)CC1=O reported_metric=Ki val=28

**Q:** Identify Ki associated with the compound `CC1(C)C=C(C(=O)OC(C)(C)C)C(=O)C1`
**A:** 27.4
